System: HepG2 cells
Test: Drug/cytokine-induced cytotoxicity (% LDH release) concentration-response in HepG2 cells
Type: cell-based, human
Conditions: value corresponding to 10% of Delta; with IFN 10 ng/ml; NA = no significant increase
observation type: EC10 IFN

molecule=CCCC(CCC)C(=O)O observation_type="EC10 IFN" result="23.4 [drug]/Cmax"
molecule=CN(C)CCCN1c2ccccc2Sc2ccc(Cl)cc21 observation_type="EC10 IFN" result="34.1 [drug]/Cmax"
molecule=NNC(=O)c1ccncc1 observation_type="EC10 IFN" result="420.5 [drug]/Cmax"
molecule="CCc1ccc(CCOc2ccc(CC3SC(=O)NC3=O)cc2)nc1 (centres unmarked)" observation_type="EC10 IFN" result="74.2 [drug]/Cmax"
molecule=COc1ccc2cc([C@H](C)C(=O)O)ccc2c1 observation_type="EC10 IFN" result="64.8 [drug]/Cmax"

All figures here come from patent US20200003760A1.
